The following substances are shown together with reported cpm1 values.
System: CD19+ B cells
Experiment: Human B cell proliferation assay (3H-thymidine incorporation)
Conditions: B cells; Donor 147; 2 μg/ml; Experiment A
Strand notation (5' to 3'): a small letter for the sugar, then the base; units joined by * are phosphorothioate-linked, units joined directly phosphodiester-linked; [ ] holds rarer units or linkages, { } end groups; capitals alone tell only the bases. d = 2'-deoxy (DNA)
Answer as a quantity: numeral, then unit.

# SUBSTANCE, cpm1
records = [
    ("5′-TCGTCGA-3′- C3-5′-ACGTTCG-3′-C3-5′-AGATGAT-3′ [Compound C-9]", "55543 cpm"),
    ("5′-TCGTCGA-3′ [Compound P-1, reference compound]", "569 cpm"),
    ("5′-TCGTCGA-3′-HEG-5′-TCGTCGA-3′-HEG-5′-TCGTCGA-3′ [Compound C-21]", "17604 cpm"),
]

Could you now consider this next substance?
// returns cpm1 for 5′-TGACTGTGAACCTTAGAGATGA-3′ (SEQ ID NO: 3) (dT*dG*dA*dC*dT*dG*dT*dG*dA*dA*dC*dC*dT*dT*dA*dG*dA*dG*dA*dT*dG*dA) [Compound P-7, reference compound] with CD19+ B cells; value = 4364 cpm

* * *

Listed next: entries and their corresponding IFN-α (pg/ml) 28065.
Test system: human PBMCs
Test: Human PBMC cytokine response assay (IFN-γ and IFN-α in cell-free medium by ELISA), with or without cPLGA
Type: cell-based
Settings: donor 28065; 20 ug/ml, 24 h; + PLGA = premixed with 100 μg/ml cPLGA
Express it in pg/mL; write the number only.

Solved entries:
# SUBSTANCE, TARGET_UNDER_TEST, READOUT_UNITS, IFN-α (pg/ml) 28065
rows = [
    ("5′-AGATGAT-3′ [Compound P-4, reference compound]", "human PBMCs", "pg/mL", 0),
    ("5′-TCGTCG-3′ [Compound P-2, reference compound]", "human PBMCs", "pg/mL", 0),
    ("(5′-TCGTCGA-3′)2-glycerol-5′-TCGTCGA-3′ [Compound C-28]", "human PBMCs", "pg/mL", 3),
    ("5′-ACGTTCG-3′-HEG-5′-ACGTTCG-3′-HEG-5′-AGATGAT-3′ [Compound C-24]", "human PBMCs", "pg/mL", 28),
]

IFN-α (pg/ml) 28065 reading for 5′-TCGTCG-3′-C12-5′-ACGTTCG-3′-C12-5′-AGATGAT-3′ [Compound C-19] : 0

IFN-α (pg/ml) 28065 in this record for 5′-TCGTCGA-3′-HEG-5′-TCGTCGA-3′-HEG-5′-TCGTCGA-3′ [Compound C-21] : 227

Value of IFN-α (pg/ml) 28065 reported for the substance (5′-TCGTCGA-3′)2-glycerol-5′-AACGTTC-3′ [Compound C-27] is 3

Per the record, 5′-TCGTCG-3′-C4-5′-ACGTTCG-3′-C4-5′-AGATGAT-3′ [Compound C-17] has IFN-α (pg/ml) 28065 of 21

The substance identified as 5′-TCGTCGA-3′- C3-5′-ACGTTCG-3′-C3-5′-AGATGAT-3′ [Compound C-9] registered its IFN-α (pg/ml) 28065 at 13

* * *

Tested on: human PBMCs
Assay: Human PBMC cytokine response assay (IFN-γ and IFN-α in cell-free medium by ELISA), with or without cPLGA
Format: cell-based
Details: Table 24; donor 28236
Collected IFN-γ values appear next to each entry.
Give just the number in pg/mL; leave the unit off.

Take a look at these entries with their results.
# SUBSTANCE, MEASURE, MEASUREMENT
rows = [
    ("5′-TCGACGT-3′-HEG-5′-TCGACGT-3′-HEG-5′-TCGACGT-3′-HEG-5′-TCGACGT-3′ [Compound C-71]", "IFN-γ", 448),
    ("(5′-TCGTCGA-3′-HEG)2-glycerol-HEG-5′-AACGTTC-3′ [Compound C-96]", "IFN-γ", 354),
    ("(5′-TCGTCGA-3′-HEG)2-glycerol-HEG-5′-AACGTTC-3′-HEG-5′-TCGA-3′ [Compound C-97]", "IFN-γ", 269),
]

Pending substance:
Data point: 5′-TCGACGT-3′-HEG-5′-TCGACGT-3′-HEG-5′-TCGACGT-3′ [Compound C-51] ; IFN-γ = 193

* * *

Listed here: items and their measured log10(IFN-γ).
Test system: human PBMCs
Assay: Human PBMC cytokine response assay (IFN-γ and IFN-α in cell-free medium by ELISA), with or without cPLGA
Type: cell-based
Details: Table 10; donor 28043
Each number you see is log10 of IFN-γ, and the unit inside the log is pg/mL.

Example substances with recorded log10(IFN-γ):
# SUBSTANCE, MEASURE, MEASUREMENT
measured = [
    ("5′-TGCTGC-3′-HEG-5′-AGCTTGC-3′-HEG-5′-AGATGAT-3′ [Compound M-1, reference compound]", "log10(IFN-γ)", 1.46),
    ("5′-TCGTCG-3′-HEG-5′-TCGTCG-3′-HEG-5′-TCGTCG-3′ [Compound C-22]", "log10(IFN-γ)", 2.54),
    ("5′-TCGACGT-3′-HEG-5′-TCGACGT-3′-HEG-5′-TCGACGT-3′ [Compound C-51]", "log10(IFN-γ)", 3.13),
    ("5′-TCGTCGA-3′-HEG-5′-TCGTCGA-3′-HEG-5′-TCGTCGA-3′ [Compound C-21]", "log10(IFN-γ)", 3.18),
    ("5′-TCGAACG-3′-HEG-5′-TCGAACG-3′-HEG-5′-TCGAACG-3′ [Compound C-50]", "log10(IFN-γ)", 3.11),
    ("5′-TCGTCGA-3′-HEG-5′-TCGTCGA-3′ [Compound C-39]", "log10(IFN-γ)", 2.69),
]

For this substance ( 5′-TCGTCGA-3′-HEG-5′-ACGTTCG-3′-HEG-5′-AGATGAT-3′ [Compound C-8] ), measured log10(IFN-γ) is 2.97

Short answer for 5′-TCGTCGT-3′-HEG-5′-TGTCGTT-3′-HEG-5′-TGTCGTT-3′ [Compound C-47] : log10(IFN-γ) was 2.73

Recorded result, 5′-TCGTCG-3′-HEG-5′-TCGA-3′ [Compound C-40] , log10(IFN-γ): 1.74

* * *

Catalogue of IFN-α values
System: human PBMCs
Assay: Human PBMC cytokine response assay (IFN-γ and IFN-α in cell-free medium by ELISA), with or without cPLGA
Type: cell-based
Conditions: Example 58; 4 ug/ml; donor 1
Return type: number; implicit unit pg/mL.

Reference set (2 entries):
# SUBSTANCE, MEASURE, MEASUREMENT
measured = [
    ("(5′-TCGAACGTTCGA-3′ (SEQ ID NO: 155)-HEG)3-trebler-HEG-5′-T-3′ (three copies HEG-trebler branched, HEG-T, chemistry not fully specified) [Compound C-175]", "IFN-α", 7134),
    ("(5′-TAGTCAT-3′-HEG)2-glycerol-HEG-5′-AACCTTC-3′ [Compound M-3, reference compound]", "IFN-α", 52),
]

What the record says about (5′-TCGACGT-3′-HEG)2-glycerol-HEG-5′-TCGACGT-3′ [Compound C-101] : IFN-α is 52

* * *

Test system: human PBMCs
Experiment: Human PBMC cytokine response assay (IFN-γ and IFN-α in cell-free medium by ELISA), with or without cPLGA
Assay type: cell-based
Conditions: Table 25; donor 28251
Strand notation (5' to 3'): a small letter for the sugar, then the base; units joined by * are phosphorothioate-linked, units joined directly phosphodiester-linked; [ ] holds rarer units or linkages, { } end groups; capitals alone tell only the bases. d = 2'-deoxy (DNA)
MEASURE: IFN-g

# SUBSTANCE, MEASURE, MEASUREMENT
records = [
    ("(5′-TCGACGT-3′-HEG)2-glycerol-HEG-5′-TCGACGT-3′ [Compound C-101]", "IFN-g", "63 pg/mL"),
    ("5′-TCGACGT-3′-HEG-5′-TCGACGT-3′-HEG-5′-TCGACGT-3′ [Compound C-51]", "IFN-g", "45 pg/mL"),
]

IFN-g reading for 5′-TCGAGAT-3′ [Compound P-13, reference compound] : 13 pg/mL

Short answer for 5′-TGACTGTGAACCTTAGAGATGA-3′ (SEQ ID NO: 3) (dT*dG*dA*dC*dT*dG*dT*dG*dA*dA*dC*dC*dT*dT*dA*dG*dA*dG*dA*dT*dG*dA) [Compound P-7, negative control, reference compound] : IFN-g was 1 pg/mL

* * *

System: human PBMCs
Assay: Human PBMC cytokine response assay (IFN-γ and IFN-α in cell-free medium by ELISA), with or without cPLGA
Assay type: cell-based
Details: Table 11; donor 28042
MEASURE: IFN-γ (pg/mL)
Number in pg/mL, nothing else.

Examples from the recorded data:
# SUBSTANCE, MEASURE, MEASUREMENT
records = [
    ("5′-TCGTCGA-3′-HEG-5′-ACGTTCG-3′-HEG-5′-AGATGAT-3′ [Compound C-8]", "IFN-γ", 623),
    ("5′-TCGTCGA-3′- C3-5′-ACGTTCG-3′-C3-5′-AGATGAT-3′ [Compound C-9]", "IFN-γ", 691),
    ("5′-TCGTCGA-3′-HEG-5′-ACGTTCG-3′-HEG-5′-GGGGGG-3′ [Compound C-49]", "IFN-γ", 367),
]

The recorded IFN-γ for 5′-TCGTCGA-3′-HEG-5′-TCGTCGA-3′-HEG-5′-TCGTCGA-3′ [Compound C-21] is 572

From: patent US9028845B2
